folding stability dG unfold overview
procedure-summary: folding stability dG unfold from trypsin proteolysis; higher = more stable
Entry rule: numbers only, all in kcal/mol.

# example entries with known answers
SAGSMEPGEVLNVTMTFYDTSGNKLGTVNFTFTDEEEAKKKIEELAKEIKEKLNKNVKVTVEINKSPSLSAG [r5_232_JUSTAS] ... 3.5
SAGGSAGGSAGGKNMQEVPFPIEIKDPKNGKKIKIPVEVRRNPDDGKYQITPEALEELIKSAGGSAGGSAGG [r7_557_TrROS] ... -0.809
SAGGSAGGSAGGKPTITVTYDKENNTVTITFPDGSKIEITVPENATEEEVKKLVEELAKSAGGSAGGSAGGS [r10_33_TrROS_Hall] ... 2.62

Let's switch to this sequence now.
Prompt line: # folding stability dG unfold lookup, item SAGGSAGGSAGEWVTIPIKNPEKLKDLPGLPIKDVEPNGGKPTITFNGDDPERIKEALNDSAGGSAGGSAGG [r11_65_TrROS]
Response line: 0.804

This collection of values is drawn from the supplement of paper PMC12764529.
